Origin of values: patent EP4644383A1

target: FGFR3 (Homo sapiens); construct: FGFR3's cytoplasmic domain [436-806 (terminal) amino acids]; purchased Carna 08-135; assay: FGFR3 kinase activity inhibition assay (LanthaScreen TR-FRET); type: biochemical; conditions: FGFR3 kinase, TR-FRET; read-out: IC50 (nM) FGFR3
Sequence (P22607 436-806): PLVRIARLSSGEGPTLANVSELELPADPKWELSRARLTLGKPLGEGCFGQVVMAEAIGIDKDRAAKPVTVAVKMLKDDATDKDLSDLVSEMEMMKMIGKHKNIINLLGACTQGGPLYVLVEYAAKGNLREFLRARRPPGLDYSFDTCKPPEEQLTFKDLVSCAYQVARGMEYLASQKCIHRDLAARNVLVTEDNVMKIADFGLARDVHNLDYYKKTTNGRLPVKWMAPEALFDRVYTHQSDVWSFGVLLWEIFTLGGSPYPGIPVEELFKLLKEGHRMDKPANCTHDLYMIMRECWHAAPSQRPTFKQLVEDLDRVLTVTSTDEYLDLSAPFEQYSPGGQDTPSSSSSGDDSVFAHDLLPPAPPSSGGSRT
measured.attribute: IC50

Example results:
molecule="C[C@@H](Oc1ccc2[nH]nc(-c3cnn(CC(F)F)c3)c2n1)c1c(Cl)cncc1Cl [Example 41]" result="10 to 100 nM"
molecule="C[C@@H](Oc1cc(F)c2[nH]nc(-c3cnn(CCN4CCCCC4)c3)c2c1)c1c(Cl)cncc1Cl [Example 23]" result="1 to 10 nM"
molecule="CCc1ccc2ncccc2c1C(C)Oc1ccc2[nH]nc(-c3cnn(C)c3)c2c1 (stereo not shown) [Example 111]" result="1 to 10 nM"
molecule="CC(Oc1ccc2[nH]nc(-c3cnn(C)c3)c2c1)c1nc(C#N)cc2nccnc12 (stereo not shown) [Example 235]" result="10 to 100 nM"
molecule="CC(Oc1ccc2[nH]nc(-c3cnn(C)c3)c2c1)c1cc(C(F)(F)F)cc2nccnc12 (stereo not shown) [Example 137]" result="10 to 100 nM"

Request: Note IC50 for the molecule shown: COCC(=O)N1CC(n2cc(-c3n[nH]c4ccc(OC(C)c5cccc6nccnc56)cc34)cn2)C1 (stereo not shown) [Example 188]
Result: < 1 nM

Request: Note IC50 for the molecule shown: CC(Oc1ccc2[nH]nc(-c3cnn(C4CN(C(=O)NC5CC5)C4)c3)c2c1)c1cccc2nccnc12 (stereo not shown) [Example 201]
Result: < 1 nM

Request: Note IC50 for the molecule shown: CC(C)c1cc2nccnc2c(C(C)Oc2ccc3[nH]nc(-c4cnn(C)c4)c3c2)n1 (stereo not shown) [Example 237]
Result: 1 to 10 nM

Request: Note IC50 for the molecule shown: Cc1cc(C(C)Oc2ccc3[nH]nc(-c4cnn(C)c4)c3c2)c2cccnc2c1 (stereo not shown) [Example 133]
Result: < 1 nM

Request: Note IC50 for the molecule shown: CC(=O)N(C)C1CC(n2cc(-c3n[nH]c4ccc(OC(C)c5cccc6nccnc56)cc34)cn2)C1 (stereo not shown) [Example 199]
Result: < 1 nM

Request: Note IC50 for the molecule shown: CC(Oc1ccc2[nH]nc(-c3cnn(C)c3)c2c1)c1ccnc2ccccc12 (stereo not shown) [Example 87]
Result: 10 to 100 nM

Request: Note IC50 for the molecule shown: C[C@@H](Oc1cc(F)c2[nH]nc(-c3cnn(CCN4CCN(C)CC4)c3)c2c1)c1c(Cl)cncc1Cl [Example 22]
Result: 1 to 10 nM

Request: Note IC50 for the molecule shown: CC(Oc1ccc2[nH]nc(-c3cnn(CCCS(C)(=O)=O)c3)c2c1)c1cccc2nccnc12 (stereo not shown) [Example 181]
Result: < 1 nM

Request: Note IC50 for the molecule shown: CC(Oc1ccc2[nH]nc(-c3cnn(C)c3)c2c1)c1cc(F)cc2ncccc12 (stereo not shown) [Example 124]
Result: < 1 nM

Request: Note IC50 for the molecule shown: CC(Nc1ccc2[nH]nc(-c3cnn(C)c3)c2c1)c1cccc2nccnc12 (stereo not shown) [Example 135]
Result: 1 to 10 nM

Request: Note IC50 for the molecule shown: C[C@@H](Oc1ccc2[nH]nc(-c3cnn(CCN4CCC5(CCNC5=O)CC4)c3)c2n1)c1c(Cl)cncc1Cl [Example 62]
Result: < 1 nM
